pIC50: −log10 of the molar value.
// cGMP-inhibited 3',5'-cyclic phosphodiesterase 3A (Homo sapiens) pIC50 records
measurement label: pIC50

molecule | measurement label | observed
Cn1c(=O)c2c(ncn2CCCOc2ccc(-c3nnn[nH]3)cc2)n(C)c1=O | pIC50 | 8.23
O=C1CCc2cc(OCCCCc3nnnn3C3CCCCC3)ccc2N1 [CILOSTAZOL] | pIC50 | 8.41
